molecular target: human mGluR5 (Homo sapiens, UniProt P41594); assay: Cell-based functional Ca2+ mobilization assay (FDSS), potentiation of glutamate EC20 response, HEK293A cells transfected with human mGluR5a (H10H or H12H cell line); conditions: H10H cell line expressing recombinant human mGluR5; in presence of glutamate EC20; ** = compound is an antagonist; read-out: pEC50 (converted)
Sequence (P41594 21-1180 isoform P41594-2 limits assumed): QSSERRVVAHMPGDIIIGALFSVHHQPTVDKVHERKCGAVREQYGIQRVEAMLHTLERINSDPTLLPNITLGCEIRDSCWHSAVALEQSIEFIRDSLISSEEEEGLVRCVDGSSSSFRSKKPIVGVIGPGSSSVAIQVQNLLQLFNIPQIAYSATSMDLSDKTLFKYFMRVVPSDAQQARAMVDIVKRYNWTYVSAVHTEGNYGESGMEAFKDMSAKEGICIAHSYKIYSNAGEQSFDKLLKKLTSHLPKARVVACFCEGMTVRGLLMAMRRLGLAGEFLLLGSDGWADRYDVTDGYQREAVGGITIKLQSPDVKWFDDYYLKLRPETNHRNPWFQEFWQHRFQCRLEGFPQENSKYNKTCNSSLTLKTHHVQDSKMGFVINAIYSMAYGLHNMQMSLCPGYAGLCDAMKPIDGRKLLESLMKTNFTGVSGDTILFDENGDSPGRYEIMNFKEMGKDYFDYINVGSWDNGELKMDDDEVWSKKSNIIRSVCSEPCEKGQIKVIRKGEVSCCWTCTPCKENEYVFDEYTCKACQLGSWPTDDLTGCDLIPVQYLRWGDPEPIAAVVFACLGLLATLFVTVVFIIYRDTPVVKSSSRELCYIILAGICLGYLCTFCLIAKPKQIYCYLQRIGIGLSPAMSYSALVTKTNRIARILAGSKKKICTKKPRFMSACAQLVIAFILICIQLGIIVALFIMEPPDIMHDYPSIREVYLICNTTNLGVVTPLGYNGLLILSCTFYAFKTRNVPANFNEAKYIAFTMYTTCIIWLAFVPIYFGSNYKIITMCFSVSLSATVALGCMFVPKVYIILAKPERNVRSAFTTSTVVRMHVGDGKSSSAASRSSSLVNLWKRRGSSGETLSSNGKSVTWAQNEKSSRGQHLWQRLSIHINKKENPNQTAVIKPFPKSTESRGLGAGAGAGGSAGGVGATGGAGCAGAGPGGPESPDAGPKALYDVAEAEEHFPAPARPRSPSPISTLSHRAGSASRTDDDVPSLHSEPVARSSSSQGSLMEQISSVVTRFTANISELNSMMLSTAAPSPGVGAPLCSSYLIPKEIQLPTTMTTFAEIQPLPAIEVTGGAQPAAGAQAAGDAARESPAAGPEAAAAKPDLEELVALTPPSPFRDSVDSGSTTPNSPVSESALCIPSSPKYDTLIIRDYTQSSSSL
measuredQuantity: EC50 (nM)

Check out these entries, answers already filled in.
molecule	measurementUnits	EC50
O=C(c1ccc(F)cc1F)N1CCn2nc(OCc3cccc(F)c3)cc2C1 [Example B129]	nM	97.7
Cn1c(Cl)ccc1C(=O)N1CCCn2nc(OCc3ccccc3)cc2C1 [Example B90]	nM	47.9
Cn1ccc(C(=O)N2CCn3nc(OCc4cccc(F)c4)cc3C2)c1 [Example B92]	nM	537
O=C(c1ccccn1)N1CCn2nc(OCc3ccccc3)cc2C1 [Example B61]	nM	4270
O=C(c1ccccc1)N1CCn2nc(OCc3ccccc3)cc2C1 [Example B50]	nM	141
O=C(c1ccc(F)cc1)N1CCn2nc(OCc3cccc(C(F)F)c3)cc2C1 [Example B124]	nM	676
O=C(c1ccc(F)c(F)c1)N1CCn2nc(OCc3ccccc3)cc2C1 [Example B49]	nM	692
CC(C)(C)CC(=O)N1CCn2nc(OCc3ccccc3)cc2C1 [Example B68]	nM	355
O=C(c1ccccc1F)N1CCn2nc(OCc3ccccc3F)cc2C1 [Example B134]	nM	141
CC(C)(C)OCC(=O)N1CCn2nc(OCc3ccccc3)cc2C1 [Example B21]	nM	631

(1) O=C(N1CCn2nc(OCc3ccccc3)cc2C1)C12C3C4C5C3C1C5C42 (centres unmarked) [Example B125]
(2) O=C(c1cc(F)cc(F)c1)N1CCn2nc(OCc3ccccc3)cc2C1 [Example B104]
Prompt line: Hi team, can someone confirm which has the larger EC50: 1 or 2 ? Thanks. Please respond with the label that marks your chosen entry.
Response line: 1
